# Tested on: TRPC4 (transient receptor potential cation channel C4 beta), mouse
# Protocol summary: positive allosteric modulators of mouse TRPC4, confirmation, cell-based, second round, Fluo-4, HEK293 TRPC4beta/mu-opioid, 1 µM (AID 2554)
# Experimental setup: DAMGO EC20, Fluo-4 calcium flux, at 1 µM
Activity calls are given as the source filed them.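 How the source made its calls: active means primary screen hit whose fluorescence ratio, in both repeats, exceeds the weak agonist control mean by 3 SD; inactive means the rest.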
Classes to choose from: active, inactive

Solved cases (10 shown):
>  <Molecule>
CCOC(=O)C1(CC2CCCCO2)CCN(Cc2c(C)cc(C)cc2-n2cccn2)CC1 (stereo unspecified)

>  <Qualitative label>
inactive

$$$$
>  <Molecule>
Cc1cc(OCCCn2ccnc2)ccc1[N+](=O)[O-]

>  <Qualitative label>
inactive

$$$$
>  <Molecule>
CCn1c(N)[n+](CC(=O)Nc2ccc(SC(F)F)cc2)c2ccccc21

>  <Qualitative label>
inactive

$$$$
>  <Molecule>
CCOC(=O)C1(Cc2cccc(F)c2)CCN(Cc2cnc(C)s2)CC1

>  <Qualitative label>
inactive

$$$$
>  <Molecule>
O=c1c2cc(Br)ccc2nc(-c2ccc(Cl)cc2)n1O

>  <Qualitative label>
inactive

$$$$
>  <Molecule>
CC(=O)Nc1ccc(C2(c3ccc(NC(C)=O)cc3)C(=O)Nc3ccccc32)cc1

>  <Qualitative label>
inactive

$$$$
>  <Molecule>
O=C(O)c1ccc(-c2ccc(/C=c3/sc4nc5ccccc5n4c3=O)o2)cc1Cl

>  <Qualitative label>
inactive

$$$$
>  <Molecule>
Cc1cccc(C(=O)NNC(=S)NC(=O)c2cccs2)c1

>  <Qualitative label>
inactive

$$$$
>  <Molecule>
CC(NCCC1(Cc2ccccc2Cl)CCOC(C)(C)C1)c1cccs1 (stereo unspecified)

>  <Qualitative label>
inactive

$$$$
>  <Molecule>
CN(C)CCCN(C(=O)c1ccc(S(=O)(=O)N2CCOCC2)cc1)c1nc2ccc(F)cc2s1

>  <Qualitative label>
inactive

$$$$

Prompt line: Assay result, entry O=C(COc1ccc(Br)cc1CNC1CCCC1)Nc1ccccc1 — outcome?
Response line: inactive

Prompt line: Outcome? COc1cccc(-c2nn(-c3ccccc3)cc2CN(C)C(C)c2ccncn2)c1 (stereo unspecified)
Response line: inactive

Prompt line: Per the records of this test, what outcome belongs to CC1CC(C)(C)N(C(=O)CN2C(=O)c3ccccc3C2=O)c2ccccc21 (stereo unspecified) ?
Response line: inactive

Prompt line: Given CN(C)CCN(C(=O)C1CCCCC1)c1nc2cc3c(cc2s1)OCO3 , state the outcome it received in this test.
Response line: inactive

Prompt line: Tell me the assay call for COC(=O)c1ccccc1N=Nc1c(N)[nH][nH]c1=O please.
Response line: active

Prompt line: Can you look up the reported call for Cc1ccccc1OCC(O)Cn1c(=N)n(Cc2ccccc2)c2ccccc21 (stereo unspecified) for me?
Response line: inactive

Data origin: PubChem BioAssay
